meta.source: ChEMBL document CHEMBL4513216

tested on: Plasmodium berghei; assay: Screen against P. berghei liver stage (PbLuc), transformed with Luciferase, at 2uM; type: functional, HepG2; conditions: tested at 2 uM
In all, about 68,000 compounds went through this assay and about 2,700 (4%) showed an effect of 50% or more. Shown is part of a subset that was picked to be rich in strong results.
Examples of compounds with documented INHIBITION follow.
Report the figure in % without appending any unit label.

c1cnc(N2CCCC(c3cc4cccnc4[nH]3)C2)nc1 (stereo unspecified)	14.47
Cc1cc(C(N)=O)nc(C2(C)CCCN2Cc2cnn(C)c2)n1 (stereo unspecified)	74.08
O=C(NCc1cccnc1)C1CN(c2cnc3ccccc3n2)CCN1 (stereo unspecified)	-6.53
CC(=O)Nc1nc(C2CCN(C(=O)C3CCC3)CC2)cs1	-49.56
CC(C)NC(=O)c1nnn(-c2cccc(C(F)(F)F)c2)c1C1CC1	-66.52
Cc1cc(C(N)=O)nc(C2(C)CCCN2Cc2cnn(C)c2C)n1 (stereo unspecified)	40.31
Cc1nn(C)c2c(NCc3ccccn3)nc(C(C)C)nc12	72.41
O=C(O)c1cc(C2=CCCCC2)cc(S(=O)(=O)NCc2ccccn2)c1	40.88
Cc1cnn(C2CCCN(C(=O)c3ccc(N4CCCC4)nn3)C2)c1 (stereo unspecified)	-104.9
COCC1CN(Cc2ccc(C)o2)Cc2cnn(CC3CCOCC3)c21 (stereo unspecified)	-24.39

Let us move to another entry and its INHIBITION.
IN: Quick one: INHIBITION for `CCN1CCC(CC(=O)NCc2nc(C)cc(C)n2)CC1` ?
OUT: -28.09
